- Tested target: hisCD44_HABD^20–169 (Homo sapiens)
- Construct: A novel construct consisting of residues 20 to 169 of human CD44 and an N-terminal six-histidine tag; made in house
- Sequence (P16070 20-169): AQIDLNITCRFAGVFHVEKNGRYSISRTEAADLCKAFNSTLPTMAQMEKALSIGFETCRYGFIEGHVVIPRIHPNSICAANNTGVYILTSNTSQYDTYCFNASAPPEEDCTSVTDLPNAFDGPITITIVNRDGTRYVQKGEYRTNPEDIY
- Assay: MST of HA oligosaccharides binding to hisCD44_HABD^20–169
- Protocol conditions: Table 5; MST, 10 mM Hepes pH 7.5, 150 mM NaCl, 0.05% Tween-20, 25 °C; mean ± SD, three titrations; read-out: KD
pKd: −log10 of the molar value.

{"Molecule": "CC(=O)N[C@H]1[C@H](O[C@H]2[C@H](O)[C@@H](O)[C@H](O[C@H]3[C@H](O)[C@@H](CO)O[C@@H](O[C@H]4[C@H](O)[C@@H](O)[C@H](O[C@@H]([C@H](O)[C@H](O)CO)[C@H](CNc5cccc6c5CCC6)NC(C)=O)O[C@@H]4C(=O)O)[C@@H]3NC(C)=O)O[C@@H]2C(=O)O)O[C@H](CO)[C@@H](O)[C@@H]1O[C@@H]1O[C@H](C(=O)O)[C@@H](O)[C@H](O)[C@H]1O", "pKd": 3.43}
{"Molecule": "COc1ccc(C(=O)O)c(NC[C@H](NC(C)=O)[C@@H](O[C@@H]2O[C@H](C(=O)O)[C@@H](O[C@@H]3O[C@H](CO)[C@@H](O)[C@H](O[C@@H]4O[C@H](C(=O)O)[C@@H](O[C@@H]5O[C@H](CO)[C@@H](O)[C@H](O[C@@H]6O[C@H](C(=O)O)[C@@H](O)[C@H](O)[C@H]6O)[C@H]5NC(C)=O)[C@H](O)[C@H]4O)[C@H]3NC(C)=O)[C@H](O)[C@H]2O)[C@H](O)[C@H](O)CO)c1", "pKd": 3.70}
{"Molecule": "CC(=O)N[C@H]1[C@H](O[C@H]2[C@H](O)[C@@H](O)[C@H](O[C@H]3[C@H](O)[C@@H](CO)O[C@@H](O[C@H]4[C@H](O)[C@@H](O)[C@H](O[C@H]5[C@H](O)[C@@H](CO)O[C@@H](O[C@H]6[C@H](O)[C@@H](O)[C@H](O[C@@H]([C@H](O)[C@H](O)CO)[C@H](CNc7ccc8c(c7)CCC8)NC(C)=O)O[C@@H]6C(=O)O)[C@@H]5NC(C)=O)O[C@@H]4C(=O)O)[C@@H]3NC(C)=O)O[C@@H]2C(=O)O)O[C@H](CO)[C@@H](O)[C@@H]1O[C@@H]1O[C@H](C(=O)O)[C@@H](O)[C@H](O)[C@H]1O", "pKd": 4.27}
{"Molecule": "CC(=O)N[C@H]1[C@H](O[C@H]2[C@H](O)[C@@H](O)[C@H](O[C@H]3[C@H](O)[C@@H](CO)O[C@@H](O[C@H]4[C@H](O)[C@@H](O)[C@H](O[C@H]5[C@H](O)[C@@H](CO)O[C@@H](O[C@H]6[C@H](O)[C@@H](O)[C@H](O[C@H]7[C@H](O)[C@@H](CO)OC(O)[C@@H]7NC(C)=O)O[C@@H]6C(=O)O)[C@@H]5NC(C)=O)O[C@@H]4C(=O)O)[C@@H]3NC(C)=O)O[C@@H]2C(=O)O)O[C@H](CO)[C@@H](O)[C@@H]1O[C@@H]1O[C@H](C(=O)O)[C@@H](O)[C@H](O)[C@H]1O (some centres unmarked) [HA8^AN, reference compound]", "pKd": 4.29}
{"Molecule": "CC(=O)N[C@H]1[C@H](O[C@H]2[C@H](O)[C@@H](O)[C@H](O[C@H]3[C@H](O)[C@@H](CO)O[C@@H](O[C@H]4[C@H](O)[C@@H](O)[C@H](O[C@@H]([C@H](O)[C@H](O)CO)[C@H](CNc5cc[nH]n5)NC(C)=O)O[C@@H]4C(=O)O)[C@@H]3NC(C)=O)O[C@@H]2C(=O)O)O[C@H](CO)[C@@H](O)[C@@H]1O[C@@H]1O[C@H](C(=O)O)[C@@H](O)[C@H](O)[C@H]1O", "pKd": 3.95}

====

- Tested target: Link_TSG6 (Homo sapiens, UniProt P98066)
- Construct: made in house
- Sequence (P98066 36-129 limits assumed): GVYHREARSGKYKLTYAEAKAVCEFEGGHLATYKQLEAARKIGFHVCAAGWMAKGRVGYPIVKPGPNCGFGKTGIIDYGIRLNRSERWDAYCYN
- Assay: ITC of HA oligosaccharides binding to Link_TSG6
- Protocol conditions: Table 1; ITC, 25 °C, 5 mM MES pH 6.0; mean ± SEM

{"Compound": "CC(=O)N[C@H]1[C@H](O[C@H]2[C@H](O)[C@@H](O)[C@H](O[C@H]3[C@H](O)[C@@H](CO)O[C@@H](O[C@H]4[C@H](O)[C@@H](O)[C@H](O[C@H]5[C@H](O)[C@@H](CO)O[C@@H](O[C@H]6[C@H](O)[C@@H](O)[C@H](O[C@H]7[C@H](O)[C@@H](CO)OC(O)[C@@H]7NC(C)=O)O[C@@H]6C(=O)O)[C@@H]5NC(C)=O)O[C@@H]4C(=O)O)[C@@H]3NC(C)=O)O[C@@H]2C(=O)O)O[C@H](CO)[C@@H](O)[C@@H]1O[C@@H]1O[C@H](C(=O)O)[C@@H](O)[C@H](O)[C@H]1O (some centres unmarked) [HA8^AN, reference compound]", "Tested target": "Link_TSG6 (Homo sapiens, UniProt P98066)", "Reading unit": "kcal/mol", "ΔG": -8.89}
{"Compound": "CC(=O)N[C@H]1[C@H](O[C@H]2[C@H](O)[C@@H](O)[C@H](O[C@H]3[C@H](O)[C@@H](CO)O[C@@H](O[C@H]4[C@H](O)[C@@H](O)[C@H](O[C@H]5[C@H](O)[C@@H](CO)O[C@@H](O[C@H]6[C@H](O)[C@@H](O)[C@H](O[C@@H]([C@H](O)[C@H](O)CO)[C@H](CNc7cccc(C(=O)O)c7)NC(C)=O)O[C@@H]6C(=O)O)[C@@H]5NC(C)=O)O[C@@H]4C(=O)O)[C@@H]3NC(C)=O)O[C@@H]2C(=O)O)O[C@H](CO)[C@@H](O)[C@@H]1O[C@@H]1O[C@H](C(=O)O)[C@@H](O)[C@H](O)[C@H]1O [HA8-3AA]", "Tested target": "Link_TSG6 (Homo sapiens, UniProt P98066)", "Reading unit": "kcal/mol", "ΔG": -8.95}

====

- Tested target: Link_TSG6 (Homo sapiens)
- Construct: made in house
- Assay: ITC of HA oligosaccharides binding to Link_TSG6
- Protocol conditions: Table 1; ITC, 25 °C, 5 mM MES pH 6.0; mean ± SEM
ΔH: recorded values

{"Molecule": "CC(=O)N[C@H]1[C@H](O[C@H]2[C@H](O)[C@@H](O)[C@H](O[C@H]3[C@H](O)[C@@H](CO)O[C@@H](O[C@H]4[C@H](O)[C@@H](O)[C@H](O[C@@H]([C@H](O)[C@H](O)CO)[C@H](CNc5cccc(C(=O)O)c5)NC(C)=O)O[C@@H]4C(=O)O)[C@@H]3NC(C)=O)O[C@@H]2C(=O)O)O[C@H](CO)[C@@H](O)[C@@H]1O[C@@H]1O[C@H](C(=O)O)[C@@H](O)[C@H](O)[C@H]1O [HA6-3AA]", "ΔH [kcal/mol]": -6.30}
{"Molecule": "CC(=O)N[C@H]1[C@H](O[C@H]2[C@H](O)[C@@H](O)[C@H](O[C@H]3[C@H](O)[C@@H](CO)O[C@@H](O[C@H]4[C@H](O)[C@@H](O)[C@H](O[C@H]5[C@H](O)[C@@H](CO)O[C@@H](O[C@H]6[C@H](O)[C@@H](O)[C@H](O[C@@H]([C@H](O)[C@H](O)CO)[C@H](CNc7cccc(C(=O)O)c7)NC(C)=O)O[C@@H]6C(=O)O)[C@@H]5NC(C)=O)O[C@@H]4C(=O)O)[C@@H]3NC(C)=O)O[C@@H]2C(=O)O)O[C@H](CO)[C@@H](O)[C@@H]1O[C@@H]1O[C@H](C(=O)O)[C@@H](O)[C@H](O)[C@H]1O [HA8-3AA]", "ΔH [kcal/mol]": -8.53}

====

- Tested target: Link_TSG6 (Homo sapiens, UniProt P98066)
- Construct: made in house
- Assay: ITC of HA oligosaccharides binding to Link_TSG6
- Protocol conditions: Table 1; ITC, 25 °C, 5 mM MES pH 6.0; 0.029 mM Link_TSG6, 0.29 mM oligosaccharide; mean ± SEM, four titrations
N: recorded values
Property name: N

{"Smiles code": "CC(=O)N[C@H]1[C@H](O[C@H]2[C@H](O)[C@@H](O)[C@H](O[C@H]3[C@H](O)[C@@H](CO)O[C@@H](O[C@H]4[C@H](O)[C@@H](O)[C@H](O[C@@H]([C@H](O)[C@H](O)CO)[C@H](CNc5ccc(C(=O)O)cc5)NC(C)=O)O[C@@H]4C(=O)O)[C@@H]3NC(C)=O)O[C@@H]2C(=O)O)O[C@H](CO)[C@@H](O)[C@@H]1O[C@@H]1O[C@H](C(=O)O)[C@@H](O)[C@H](O)[C@H]1O", "Reported result": "1.02 ± 0.05"}
{"Smiles code": "CC(=O)N[C@H]1[C@H](O[C@H]2[C@H](O)[C@@H](O)[C@H](O[C@H]3[C@H](O)[C@@H](CO)O[C@@H](O[C@H]4[C@H](O)[C@@H](O)[C@H](O[C@H]5[C@H](O)[C@@H](CO)O[C@@H](O[C@H]6[C@H](O)[C@@H](O)[C@H](O[C@@H]([C@H](O)[C@H](O)CO)[C@H](CNc7ccccc7C(=O)O)NC(C)=O)O[C@@H]6C(=O)O)[C@@H]5NC(C)=O)O[C@@H]4C(=O)O)[C@@H]3NC(C)=O)O[C@@H]2C(=O)O)O[C@H](CO)[C@@H](O)[C@@H]1O[C@@H]1O[C@H](C(=O)O)[C@@H](O)[C@H](O)[C@H]1O", "Reported result": "1.06 ± 0.03"}
{"Smiles code": "CC(=O)N[C@H]1[C@H](O[C@H]2[C@H](O)[C@@H](O)[C@H](O[C@H]3[C@H](O)[C@@H](CO)O[C@@H](O[C@H]4[C@H](O)[C@@H](O)[C@H](O[C@@H]([C@H](O)[C@H](O)CO)[C@H](CNc5ccccc5C(=O)O)NC(C)=O)O[C@@H]4C(=O)O)[C@@H]3NC(C)=O)O[C@@H]2C(=O)O)O[C@H](CO)[C@@H](O)[C@@H]1O[C@@H]1O[C@H](C(=O)O)[C@@H](O)[C@H](O)[C@H]1O", "Reported result": "1.03 ± 0.02"}

Sourced from paper PMC11460632
